# maps each entry to its IC50
- Assay Target: Acetylcholine binding protein from Aplysia californica (Aplysia californica)
- Test Protocol: radioligand binding
Lab book: enter the figure in nM, no units written.

Tx-NM4 (natural protein) IRCFITPDVTSQICADGHVCYTKTWCDNFCASRGKRVDLGCAATCPTVKPGVNIKCCSTDNCNPFPTRNRP; 2350

# next binder below
State the recorded IC50 for this entry: Long type neurotoxin I from cobra N. oxiana (natural protein) ITCYKTPIPITSETCAPGQNLCYTKTWCDAWCGSRGKVIELGCAATCPTVESYQDIKCCSTDDCNPHPKQKRP
1200

meta.source: paper PMC7924340
